# TARGET_OR_TEST_SYSTEM: Cyclin-dependent kinase 10 ; CDK10 ; Q15131 (Homo sapiens)
# EXPERIMENT: biochemical
MEASURED_ATTRIBUTE: pIC50
Notebook: values listed as pIC50 are -log10 of the concentration (mol/L).

Query: # input compound: COc1cc(F)ccc1-c1cc(Nc2cc(CS(C)(=N)=O)ccn2)ncc1F (stereo not shown) ; wanted: its pIC50
Response: 5.96

---

# TARGET_OR_TEST_SYSTEM: Cyclin-dependent kinase 12 ; CDK12 ; Q9NYV4 (Homo sapiens, UniProt Q9NYV4)
# Sequence (Q9NYV4 whole entry, one chain of several): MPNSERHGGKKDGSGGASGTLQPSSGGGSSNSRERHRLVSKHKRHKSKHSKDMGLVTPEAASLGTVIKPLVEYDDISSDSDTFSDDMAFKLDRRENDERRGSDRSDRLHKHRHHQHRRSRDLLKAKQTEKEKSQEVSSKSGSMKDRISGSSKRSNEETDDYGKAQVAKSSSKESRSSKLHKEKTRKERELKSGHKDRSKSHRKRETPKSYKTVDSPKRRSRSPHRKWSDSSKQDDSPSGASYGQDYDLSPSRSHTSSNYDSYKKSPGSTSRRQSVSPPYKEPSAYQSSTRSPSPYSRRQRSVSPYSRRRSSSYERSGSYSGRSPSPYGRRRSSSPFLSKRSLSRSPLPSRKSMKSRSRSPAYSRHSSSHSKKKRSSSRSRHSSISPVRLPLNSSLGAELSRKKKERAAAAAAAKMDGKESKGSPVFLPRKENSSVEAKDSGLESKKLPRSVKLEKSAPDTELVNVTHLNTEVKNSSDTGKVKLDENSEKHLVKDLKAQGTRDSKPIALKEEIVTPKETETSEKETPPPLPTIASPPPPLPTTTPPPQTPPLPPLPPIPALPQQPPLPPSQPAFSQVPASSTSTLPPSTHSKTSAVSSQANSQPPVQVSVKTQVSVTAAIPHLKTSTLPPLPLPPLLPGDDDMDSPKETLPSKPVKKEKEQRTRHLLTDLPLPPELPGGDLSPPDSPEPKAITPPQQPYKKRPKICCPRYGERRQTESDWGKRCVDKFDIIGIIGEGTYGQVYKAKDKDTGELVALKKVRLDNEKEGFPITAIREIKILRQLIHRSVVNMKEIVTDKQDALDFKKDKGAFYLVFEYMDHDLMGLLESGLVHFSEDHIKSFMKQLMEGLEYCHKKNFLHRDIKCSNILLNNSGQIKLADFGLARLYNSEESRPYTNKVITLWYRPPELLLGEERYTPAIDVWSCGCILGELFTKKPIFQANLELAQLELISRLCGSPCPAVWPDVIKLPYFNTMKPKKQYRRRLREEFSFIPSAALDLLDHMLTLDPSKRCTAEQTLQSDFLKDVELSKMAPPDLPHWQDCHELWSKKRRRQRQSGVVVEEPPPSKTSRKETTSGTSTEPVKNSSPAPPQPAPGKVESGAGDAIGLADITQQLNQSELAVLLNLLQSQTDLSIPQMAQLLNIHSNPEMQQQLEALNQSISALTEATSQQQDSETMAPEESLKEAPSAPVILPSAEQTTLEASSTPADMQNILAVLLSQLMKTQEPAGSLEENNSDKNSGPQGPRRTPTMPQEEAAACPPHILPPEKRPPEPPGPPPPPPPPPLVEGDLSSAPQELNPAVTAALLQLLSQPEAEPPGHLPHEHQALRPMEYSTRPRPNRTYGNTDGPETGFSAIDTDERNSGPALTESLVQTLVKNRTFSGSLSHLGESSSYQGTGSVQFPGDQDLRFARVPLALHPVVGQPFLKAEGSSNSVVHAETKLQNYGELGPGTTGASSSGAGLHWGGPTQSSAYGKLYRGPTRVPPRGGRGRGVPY
# EXPERIMENT: biochemical
MEASURED_ATTRIBUTE: IC50

Query: API: value(readout=IC50, system=Cyclin-dependent kinase 12 ; CDK12 ; Q9NYV4 (Homo sapiens, UniProt Q9NYV4)) for record COc1cc(F)ccc1-c1ncnc(Nc2cccc(C[S@](C)(=N)=O)c2)n1
Response: > 10 µM

---

# TARGET_OR_TEST_SYSTEM: UniProt:Q9Y616
# Sequence (Q9Y616 whole entry): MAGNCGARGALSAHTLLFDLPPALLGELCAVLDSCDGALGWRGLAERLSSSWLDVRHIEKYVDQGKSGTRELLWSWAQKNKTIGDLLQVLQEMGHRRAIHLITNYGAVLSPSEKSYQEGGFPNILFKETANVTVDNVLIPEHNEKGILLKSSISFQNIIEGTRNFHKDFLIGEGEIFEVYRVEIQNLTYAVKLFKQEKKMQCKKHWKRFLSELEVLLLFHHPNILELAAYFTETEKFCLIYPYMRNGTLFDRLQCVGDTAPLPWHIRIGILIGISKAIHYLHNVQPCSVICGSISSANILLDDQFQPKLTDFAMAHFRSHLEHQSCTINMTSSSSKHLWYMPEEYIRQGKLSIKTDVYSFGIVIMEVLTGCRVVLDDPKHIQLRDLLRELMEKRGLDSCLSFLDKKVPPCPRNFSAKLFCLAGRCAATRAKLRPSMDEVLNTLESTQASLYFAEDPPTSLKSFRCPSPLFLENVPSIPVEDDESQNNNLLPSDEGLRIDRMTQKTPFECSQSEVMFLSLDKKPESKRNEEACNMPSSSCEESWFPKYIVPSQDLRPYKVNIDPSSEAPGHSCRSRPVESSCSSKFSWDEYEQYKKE
# EXPERIMENT: biochemical
MEASURED_ATTRIBUTE: IC50 (nM)
Reply with just the number (in nM).

Query: API: value(readout=IC50, system=UniProt:Q9Y616) for record COc1cc(F)ccc1-c1ncnc(Nc2cccc(C[S@](C)(=N)=O)c2)n1 [BAY-1143572]
Response: 2980

---

# TARGET_OR_TEST_SYSTEM: Non-receptor tyrosine-protein kinase TYK2 ; TYK2 ; P29597 (Homo sapiens)
# EXPERIMENT: biochemical
MEASURED_ATTRIBUTE: IC50 (nM)
Reply with just the number (in nM).

Query: # input compound: COc1cc(F)ccc1-c1ncnc(Nc2cccc(C[S@](C)(=N)=O)c2)n1 [BAY-1143572] ; wanted: its IC50
Response: 2990

---

# TARGET_OR_TEST_SYSTEM: Calcium/calmodulin-dependent protein kinase kinase 1 ; CAMKK1 ; Q8N5S9 (Homo sapiens)
# Sequence (Q8N5S9 whole entry, one chain of several): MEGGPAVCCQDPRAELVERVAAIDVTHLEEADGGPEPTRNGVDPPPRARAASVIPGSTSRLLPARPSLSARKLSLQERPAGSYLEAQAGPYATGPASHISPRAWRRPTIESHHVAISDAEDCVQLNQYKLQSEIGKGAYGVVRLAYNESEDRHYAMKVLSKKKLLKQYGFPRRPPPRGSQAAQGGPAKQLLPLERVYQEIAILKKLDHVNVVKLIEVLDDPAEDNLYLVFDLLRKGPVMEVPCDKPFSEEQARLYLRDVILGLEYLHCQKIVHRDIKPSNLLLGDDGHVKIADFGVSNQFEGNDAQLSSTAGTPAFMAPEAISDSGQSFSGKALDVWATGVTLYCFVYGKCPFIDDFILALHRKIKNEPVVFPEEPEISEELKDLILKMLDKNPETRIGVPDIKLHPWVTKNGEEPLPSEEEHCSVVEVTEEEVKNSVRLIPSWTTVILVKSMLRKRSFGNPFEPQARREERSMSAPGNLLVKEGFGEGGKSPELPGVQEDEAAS
# EXPERIMENT: biochemical
What IC50 was measured for each of the following?
A complete answer gives the number followed by the unit.

Query: # input compound: COc1cc(F)ccc1-c1ncnc(Nc2cccc(C[S@](C)(=N)=O)c2)n1 ; wanted: its IC50
Response: 0.379 µM

Query: Repeat for the following compound: COc1cc(F)ccc1-c1cc(Nc2cc(CS(C)(=N)=O)ccn2)ncc1F (centres unmarked)
Response: 0.305 µM

---

# TARGET_OR_TEST_SYSTEM: Cyclin-dependent kinase 16 ; CDK16 ; Q00536 (Homo sapiens)
# Sequence (Q00536 whole entry, one chain of several): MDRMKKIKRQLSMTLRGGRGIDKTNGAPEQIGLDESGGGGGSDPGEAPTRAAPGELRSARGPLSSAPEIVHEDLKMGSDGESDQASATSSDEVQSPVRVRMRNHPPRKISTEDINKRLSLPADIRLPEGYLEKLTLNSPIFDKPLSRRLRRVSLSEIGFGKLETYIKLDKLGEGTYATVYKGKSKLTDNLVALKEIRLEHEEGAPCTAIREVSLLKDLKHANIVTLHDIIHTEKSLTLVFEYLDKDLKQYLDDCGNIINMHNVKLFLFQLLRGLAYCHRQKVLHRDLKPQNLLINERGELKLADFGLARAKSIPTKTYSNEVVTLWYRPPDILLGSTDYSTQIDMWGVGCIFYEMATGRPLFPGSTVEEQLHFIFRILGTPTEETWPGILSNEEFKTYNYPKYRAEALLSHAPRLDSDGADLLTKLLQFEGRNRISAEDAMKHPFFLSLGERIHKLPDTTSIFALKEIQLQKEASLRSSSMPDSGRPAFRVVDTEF
# EXPERIMENT: biochemical
pIC50: −log10 of the molar value.
MEASURED_ATTRIBUTE: pIC50

Query: # input compound: COc1cc(F)ccc1-c1ncnc(Nc2cccc(C[S@](C)(=N)=O)c2)n1 ; wanted: its pIC50
Response: < 5.00

---

# TARGET_OR_TEST_SYSTEM: Discoidin domain-containing receptor 2 ; DDR2 ; Q16832 (Homo sapiens, UniProt Q16832)
# Sequence (Q16832 whole entry, the tested form may be a part): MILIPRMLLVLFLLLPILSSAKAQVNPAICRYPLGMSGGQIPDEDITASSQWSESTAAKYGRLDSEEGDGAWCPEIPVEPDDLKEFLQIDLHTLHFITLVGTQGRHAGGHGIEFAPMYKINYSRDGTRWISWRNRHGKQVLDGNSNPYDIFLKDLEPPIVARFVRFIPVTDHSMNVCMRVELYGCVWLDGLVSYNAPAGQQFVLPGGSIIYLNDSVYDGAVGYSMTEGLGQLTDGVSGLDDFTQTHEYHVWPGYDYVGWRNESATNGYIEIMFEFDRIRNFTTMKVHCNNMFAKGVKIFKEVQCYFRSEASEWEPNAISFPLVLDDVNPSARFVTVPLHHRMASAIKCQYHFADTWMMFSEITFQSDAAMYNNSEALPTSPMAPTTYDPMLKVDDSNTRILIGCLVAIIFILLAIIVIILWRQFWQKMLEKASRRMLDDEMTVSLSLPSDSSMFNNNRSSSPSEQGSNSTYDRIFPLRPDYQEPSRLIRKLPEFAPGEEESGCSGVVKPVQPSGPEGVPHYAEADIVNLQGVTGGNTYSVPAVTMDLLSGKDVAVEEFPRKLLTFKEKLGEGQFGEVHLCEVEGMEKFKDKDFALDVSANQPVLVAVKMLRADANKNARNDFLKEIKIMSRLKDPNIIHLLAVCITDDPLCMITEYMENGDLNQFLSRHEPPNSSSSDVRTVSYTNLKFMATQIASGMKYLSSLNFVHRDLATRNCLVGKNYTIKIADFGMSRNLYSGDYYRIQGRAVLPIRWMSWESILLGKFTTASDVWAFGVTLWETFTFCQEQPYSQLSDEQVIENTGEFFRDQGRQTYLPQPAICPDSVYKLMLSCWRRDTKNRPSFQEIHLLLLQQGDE
# EXPERIMENT: biochemical
MEASURED_ATTRIBUTE: IC50

Query: # input compound: COc1cc(F)ccc1-c1ncnc(Nc2cccc(C[S@](C)(=N)=O)c2)n1 [BAY-1143572] ; wanted: its IC50
Response: > 10 µM

---

# TARGET_OR_TEST_SYSTEM: High affinity nerve growth factor receptor ; NTRK1 ; P04629 (Homo sapiens, UniProt P04629)
# Sequence (P04629 whole entry): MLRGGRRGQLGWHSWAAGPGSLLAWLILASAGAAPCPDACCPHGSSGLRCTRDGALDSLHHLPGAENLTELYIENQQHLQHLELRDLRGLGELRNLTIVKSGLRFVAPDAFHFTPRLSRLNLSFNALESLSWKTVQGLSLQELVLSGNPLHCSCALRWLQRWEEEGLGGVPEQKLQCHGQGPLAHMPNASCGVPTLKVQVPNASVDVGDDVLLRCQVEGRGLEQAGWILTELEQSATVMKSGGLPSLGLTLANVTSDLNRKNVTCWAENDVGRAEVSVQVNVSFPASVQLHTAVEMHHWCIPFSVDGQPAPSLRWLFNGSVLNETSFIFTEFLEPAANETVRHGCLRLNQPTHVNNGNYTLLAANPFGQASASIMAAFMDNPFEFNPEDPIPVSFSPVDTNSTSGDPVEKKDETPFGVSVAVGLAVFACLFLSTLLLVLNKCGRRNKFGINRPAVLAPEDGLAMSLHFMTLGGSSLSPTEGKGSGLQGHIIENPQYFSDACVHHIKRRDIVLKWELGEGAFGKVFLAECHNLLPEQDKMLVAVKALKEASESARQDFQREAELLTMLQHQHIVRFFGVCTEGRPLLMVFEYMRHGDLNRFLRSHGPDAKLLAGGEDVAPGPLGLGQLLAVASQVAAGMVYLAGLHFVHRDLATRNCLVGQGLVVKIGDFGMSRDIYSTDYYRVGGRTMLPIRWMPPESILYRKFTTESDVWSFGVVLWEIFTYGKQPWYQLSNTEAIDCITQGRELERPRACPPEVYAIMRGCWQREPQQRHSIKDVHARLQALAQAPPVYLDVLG
# EXPERIMENT: biochemical
# Design: species or system human cell line lysate
MEASURED_ATTRIBUTE: IC50

Query: # input compound: COc1cc(F)ccc1-c1ncnc(Nc2cccc(C[S@](C)(=N)=O)c2)n1 ; wanted: its IC50
Response: > 10 µM
